measured.on: RBP4-TTR interaction (Homo sapiens (Human), UniProt P02753)
experimental.protocol: HTRF (TR-FRET) assay for antagonists of retinol-induced RBP4-TTR interaction
Format: biochemical
reported.conditions: in the presence of 1 μM retinol
assay.metric: pIC50
Answers are plain numbers, as −log10 of the molar value.

[[record]]
compound = "O=C(c1nc2ncc(CCO)cn2n1)N1C[C@H]2C[C@@H](c3cc(F)ccc3C(F)(F)F)C[C@H]2C1"
readout_value = 6.31

[[record]]
compound = "O=C(c1cnc2ncccn12)N1C[C@H]2C[C@@H](c3ccccc3OC(F)(F)F)C[C@H]2C1"
readout_value = 5.84


Please state pIC50 for every compound in the list that follows.
1. Cc1ccn2c(C(=O)N3C[C@H]4C[C@@H](c5ccccc5OC(F)(F)F)C[C@H]4C3)nnc2n1
2. Cc1cnc2nc(C(=O)N3C[C@H]4C[C@@H](c5ccccc5OC(F)(F)F)C[C@H]4C3)nn2c1
3. O=C(c1nc2ncccn2n1)N1C[C@H]2C[C@@H](c3ccccc3-c3ccccc3)C[C@H]2C1 [Compound 10d]
4. O=C(c1nc2ncc(CCO)cn2n1)N1C[C@H]2C[C@@H](c3ccccc3C(F)(F)F)C[C@H]2C1
5. O=C(c1nc2ncc(CCCl)cn2n1)N1C[C@H]2C[C@@H](c3ccccc3C(F)(F)F)C[C@H]2C1

5.95
6.35
6.52
6.70
6.20

---

experimental.protocol: Metabolic stability in liver microsomes (HLM)
Assay type: in vitro ADME, human
assay.metric: Metabolic stability in liver microsomes: % Remaining at 30 min, HLM (%)
Numbers only, in %.

[[record]]
molecule = "O=C(c1nc2ncc(CCO)cn2n1)N1C[C@@H]2CN(c3cc(F)ccc3C(F)(F)F)C[C@@H]2C1 [Compound 7p]"
readout_value = 73


Please state Metabolic stability in liver microsomes: % Remaining at 30 min, HLM for every molecule in the list that follows.
1. O=C(c1nc2ncccn2n1)N1C[C@H]2C[C@@H](c3ccccc3C(F)(F)F)C[C@H]2C1 [Compound 7a]
2. O=C(c1nc2ncc(CCO)cn2n1)N1C[C@@H]2CN(c3cc(F)ccc3C(F)(F)F)C[C@@H]2C1 [Compound 7q]
3. O=C(c1nc2ncc(CCO)cn2n1)N1C[C@H]2C[C@@H](c3ccccc3C(F)(F)F)C[C@H]2C1 [Compound 7j]
4. Cc1ccn2c(C(=O)N3C[C@H]4C[C@@H](c5ccccc5C(F)(F)F)C[C@H]4C3)nnc2n1 [Compound 7g]

1: 85; 2: 26; 3: 73; 4: 61

---

measured.on: RBP4-TTR interaction (Homo sapiens (Human))
experimental.protocol: HTRF (TR-FRET) assay for antagonists of retinol-induced RBP4-TTR interaction
reported.conditions: in the presence of 1 μM retinol
Method: TR-FRET Assay for Retinol-Induced RBP4-TTR Interaction Binding of a desired RBP4 antagonist displaces retinol and induces hindrance for RBP4-TTR interaction resulting in the decreased FRET signal (FIG. 7). Bacterially expressed MBP-RBP4 and untagged TTR were used in this assay. […] TR-FRET signal was measured in the SpectraMax M5e Multimode Plate Reader (Molecular Device). […] The TR-FRET signal was expressed as the ratio of fluorescence intensity: Flu665/Flu620×10,000. […]
What IC50 was measured for each of the following?
Numbers only, in nM.

In the examples that follow, each entry is paired with its recorded IC50.
[[record]]
smiles_record = "O=C(c1cn2cccnc2n1)N1C[C@H]2C[C@@H](c3ccccc3OC(F)(F)F)C[C@H]2C1"
measured_on = "RBP4-TTR interaction (Homo sapiens (Human))"
assay_metric = "IC50"
readout_value = 741

[[record]]
smiles_record = "O=C(c1nc2ncc(Br)cn2n1)N1C[C@H]2C[C@@H](c3ccccc3C(F)(F)F)C[C@H]2C1"
measured_on = "RBP4-TTR interaction (Homo sapiens (Human))"
assay_metric = "IC50"
readout_value = 949

[[record]]
smiles_record = "NCCc1cnc2nc(C(=O)N3C[C@H]4C[C@@H](c5ccccc5C(F)(F)F)C[C@H]4C3)nn2c1"
measured_on = "RBP4-TTR interaction (Homo sapiens (Human))"
assay_metric = "IC50"
readout_value = 1470


Below: the item to evaluate.
Reported RBP4-TTR interaction (Homo sapiens (Human)) IC50 for item "COCCc1cnc2nc(C(=O)N3C[C@H]4C[C@@H](c5ccccc5C(F)(F)F)C[C@H]4C3)nn2c1" was 1010

---

measured.on: CYP3A4 (Homo sapiens (Human))
Sequence (P08684 whole entry, species assumed): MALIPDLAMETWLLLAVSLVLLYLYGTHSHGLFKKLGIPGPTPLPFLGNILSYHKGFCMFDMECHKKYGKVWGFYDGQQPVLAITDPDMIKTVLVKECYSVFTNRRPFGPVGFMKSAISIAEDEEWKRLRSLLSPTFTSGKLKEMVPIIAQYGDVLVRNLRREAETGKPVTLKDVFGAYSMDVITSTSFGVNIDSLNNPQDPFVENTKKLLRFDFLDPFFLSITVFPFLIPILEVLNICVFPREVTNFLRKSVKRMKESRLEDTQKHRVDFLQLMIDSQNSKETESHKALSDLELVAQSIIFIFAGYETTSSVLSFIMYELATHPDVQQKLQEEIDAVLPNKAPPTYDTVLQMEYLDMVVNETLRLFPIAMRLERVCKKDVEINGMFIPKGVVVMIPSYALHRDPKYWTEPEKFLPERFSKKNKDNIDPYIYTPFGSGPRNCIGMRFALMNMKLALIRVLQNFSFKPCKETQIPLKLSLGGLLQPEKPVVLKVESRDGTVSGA
experimental.protocol: CYP inhibition, fluorescent, CYP3A4
Format: in vitro ADME
pIC50: −log10 of the molar value.
assay.metric: pIC50

[[record]]
smiles_record = "Cc1ccn2c(C(=O)N3C[C@H]4C[C@@H](c5ccccc5C(F)(F)F)C[C@H]4C3)nnc2n1"
assay_metric = "pIC50"
readout_value = "< 4.00"

[[record]]
smiles_record = "O=C(c1nc2ncccn2n1)N1C[C@H]2C[C@@H](c3ccccc3C(F)(F)F)C[C@H]2C1"
assay_metric = "pIC50"
readout_value = "< 4.00"


Below: the item to evaluate.
Documented pIC50 of "O=C(c1nc2ncc(CCO)cn2n1)N1C[C@@H]2CN(c3ccccc3C(F)(F)F)C[C@@H]2C1" : < 4.70

Ref: patent US12168664B2
